Values from patent US20200368361A1

Target: T1, mouse MSR1 on RAW264.7 cells (mouse, UniProt P30204 1-458)
T1 construct: whole, on cells
T1 sequence (looked up): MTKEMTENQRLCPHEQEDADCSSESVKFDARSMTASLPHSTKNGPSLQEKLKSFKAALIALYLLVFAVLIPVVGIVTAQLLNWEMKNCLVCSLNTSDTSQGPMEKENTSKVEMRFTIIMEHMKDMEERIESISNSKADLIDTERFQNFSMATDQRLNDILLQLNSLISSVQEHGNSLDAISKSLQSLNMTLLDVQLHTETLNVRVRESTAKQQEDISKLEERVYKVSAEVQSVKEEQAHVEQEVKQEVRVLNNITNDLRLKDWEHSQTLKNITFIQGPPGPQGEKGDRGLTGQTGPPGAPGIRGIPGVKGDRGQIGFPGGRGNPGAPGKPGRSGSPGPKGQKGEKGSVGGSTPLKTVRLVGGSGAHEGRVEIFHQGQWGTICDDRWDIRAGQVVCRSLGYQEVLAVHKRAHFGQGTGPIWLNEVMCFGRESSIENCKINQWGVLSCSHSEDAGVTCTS
Test: flow cytometry, RAW264.7 cells, 10 ug/mL;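 further: antibodies bound to RAW264.7 cells for 30 min on ice after Fc block with mouse IgG, S/N is MFI relative to unstained cells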
Reported metric: MFI

Binder	Numeric readout
H1H27729P-N297Q (antibody, human IgG1, V domains shown, human IgG1 Fc with N297Q) VH: QVQLVESGGGLVKPGGSLRLSCAASGFIFSDYYMSWIRQAPGKGLEWVSYISSSGTTIYGDSVKGRFTMSRDNAKNSLYLQMNSLRAEDTAVYYCARNYALFDYWGQGTLVTVSS VL: DIQMTQSPSSLSASVGDRVTITCQASQDISKYLNWYQQKPGKAPKLLIYYTSNLETGVPSRFSGSGSGTDFTFTISSLQPEDIATYYCHQSDYLPFTFGPGTKVDIKR	3480
H1H21231N-N297Q (antibody, human IgG1, V domains shown, human IgG1 Fc with N297Q) VH: EVQLVESGGGLVQPGGSLRLSCAASGFTFSDHYMDWVRQAPGKGLEWVGRTRNKANSHTTEYTASVTGRFTISRDDSRNSLYLQMNSLKTEDTAVYYCVRAGIIGTLFDYWGQGTLVTVSS VL: DIQMTQFPSSLSASVGDRVTITCRASQSISSFLNWFQQKPGKAPKFLIYAASSLQSGVPSRFSGSGSGTDFTLTISSLQPEDFATYYCQQSYSSPPITFGQGTRLEIKR	3580
H1H27736P-N297Q (antibody, human IgG1, V domains shown, human IgG1 Fc with N297Q) VH: EVQLVESGGGLVQPGGSLRLSCAASGFTFSSYAMSWVRQAPGKGLEWVSSISGSGDSTFYTDSVKGRFTISRDISKNTLYLQMNSLRAEDTAVYYCAKDRLLWFGDLISPFHYWGQGTLVTVSS VL: EIVLTQSPGTLSLSPGERATLSCRASQSVSNIYLAWYQQKPAQAPRLLIYGASSRATGIPDRFSVSGSGTDFTLTISRLEPEDFAVYYCQQYGSSPRTFGQGTKVEIKR	3550
H1H27734P-N297Q (antibody, human IgG1, V domains shown, human IgG1 Fc with N297Q) VH: EVQLVESRGGLVQPGGSLRLSCAASGFTFSSYAMSWVRQAPGKGLEWVSAISGSGGSTFYADSVKGRFTISRDNSKNTVYLQMNSLRAEDTAVYYCAKALVLRFLEWLGDYWGQGTLVTVSS VL: DIQMTQSPSTLSASVGDRVTITCRASQSISSWLAWFQQKPGKAPKLLIYKASSLESGVPSRFSGSGSGTEFTLTISSLQPDDFATYYCQQYKSYWTFGQGTKVEIKR	4780
H1H21234N-N297Q (antibody, human IgG1, V domains shown, human IgG1 Fc with N297Q) VH: QVQLQESGPGLVKPSETLSLTCTVTGGSISRNYWSWIRQPPGKGLEWIGYIYYSGSIDYNPSLKSRVTISVDTSKNQFSLKLSSMTAADTAVYYCARDRWNWKYGMDVWGQGTTVIVSS VL: EIVLTQSPGTLSLSPGERATLSCRASQTVRNNYLAWYHQKPGQAPRLLIYGASSRATGIPDRFSGSGSGTDFTLTISRLEPEDFTVYYCHQYGNSPWTFGQGTKMEIKR	7050
